Entries and their log10 of LC50 at 48 h
# Assay overview: Example G: in vivo ecotoxicity screening test on fish (Danio rerio)
# Assay conditions: Danio rerio, in vivo, other: exposure of embryos in water containing the compound
Property measured: log10 of LC50 at 48 h (log10 of the value in µg/mL)

Compound	log10 of LC50 at 48 h
N#Cc1cncn1CC(O)(Cc1cccc(Cl)c1F)C1(Cl)CC1 (centres unmarked)	1.45
CON=C(C(=O)OC)c1ccccc1CON=C(C)c1cccc(C(F)(F)F)c1	-0.40
CC(C)(C)[C@@H](O)[C@@H](Cc1ccc(Cl)cc1)n1cncn1 (racemic)	2.00
OC(Cc1ccccc1Cl)(Cn1nc[nH]c1=S)C1(Cl)CC1 (centres unmarked)	0.98
N#Cc1cncn1CC(O)(Cc1ccccc1F)C1(Cl)CC1 (centres unmarked)	1.55
CC(C)C1CCC(Cc2ccc(Cl)cc2)C1(O)Cn1cncn1 (centres unmarked)	1.14
CC1CC(C)(C)c2cccc(NC(=O)c3cn(C)nc3C(F)F)c21 (centres unmarked) [Example 2.027, reference compound]	0.27
CCCN(CC)CC1COC2(CCC(C(C)(C)C)CC2)O1 (centres unmarked) [1.020 spiroxamine, spiroxamine, reference compound]	1.22

---

# Assay overview: Measurement of Log P values by HPLC on reversed phase columns (EEC directive 79/831 Annex V.A8)
# Format: physicochemical
Marks after values point to notes of the source that are not given here.

Compound	LogP
N#Cc1cncn1CC(O)(Cc1cc(F)cc(F)c1)C1(Cl)CC1 (centres unmarked) [Example I-156]	2.86^[a]
CC(C)C(O)(Cc1ccccc1F)Cn1cncc1C#N (centres unmarked) [Example I-139]	2.40^[a]
OC(Cc1cccnc1Cl)(Cn1cncc1Cl)C1(Cl)CC1 (centres unmarked) [Example I-07]	1.57^[a]
Cc1cncn1CC(O)(C(F)c1ccccc1Cl)C1(Cl)CC1 (centres unmarked) [Example I-13]	1.75^[a]
N#Cc1cncn1CC(O)(Cc1ccncc1Cl)C1(Cl)CC1 (racemic) [Example I-57]	1.88^[a]

---

# Assay overview: Measurement of Log P values by HPLC on reversed phase columns (EEC directive 79/831 Annex V.A8)
# Assay type: physicochemical
# Assay conditions: reversed phase HPLC column; method [a]: LC-UV, acidic range, 0.1% formic acid in water and acetonitrile as eluent; Table 1, compounds of formula (I)
Property measured: chromatographic logP

Compound	Observed value
N#Cc1cncn1C[C@@](O)(Cc1ccccc1F)C1(Cl)CC1 [Example I-133]	2.59
N#Cc1cncn1C[C@](O)(Cc1ccccc1F)C1(Cl)CC1 [Example I-132]	2.59

---

# Assay overview: Measurement of Log P values by HPLC on reversed phase columns (EEC directive 79/831 Annex V.A8)
# Type: physicochemical
Marks after values point to notes of the source that are not given here.

Compound	LogP
OC(Cc1ccc(F)c(F)c1)(Cn1cncc1Cl)C1(Cl)CC1 (stereo not shown)	2.23^[a]
N#Cc1cncn1CC(O)(Cc1cccc(Cl)c1Cl)C1CCC1 (racemic)	3.31^[a]
N#Cc1cncn1CC(O)(Cc1cc(Br)ncc1Br)C1(Cl)CC1 (racemic)	2.73^[a]
OC(Cc1c(Cl)ccnc1Cl)(Cn1cncc1Cl)C1(Cl)CC1 (stereo not shown)	2.02^[a]
OC(Cc1ccncc1F)(Cn1cncc1Cl)C1(Cl)CC1 (stereo not shown)	1.46^[a]
CC(C)(C)CC(O)(Cc1ccc(Cl)cc1)Cn1cncc1C#N (racemic)	3.37^[a]
N#Cc1cncn1CC(O)(Cc1ccc(F)cc1)C1(F)CC1 (racemic)	2.35^[a]
OC(Cn1cncc1Cl)(C(F)c1ccccc1Cl)C1(Cl)CC1 (stereo not shown)	2.17^[a]
N#Cc1cncn1CC(O)(Cc1ccccc1I)C1(Cl)CC1 (stereo not shown)	3.13^[a]
C#Cc1cncn1CC(O)(Cc1ccccc1F)C1(Cl)CC1 (racemic)	1.89^[a]
N#Cc1cncn1CC(O)(C(F)c1ccccc1Cl)C1(Cl)CC1 (stereo not shown)	2.82^[a]
OC(Cc1cc(Cl)ncc1Cl)(Cn1cncc1Cl)C1(Cl)CC1 (stereo not shown)	2.18^[a]
Cc1ccccc1CC(O)(Cn1cncc1Cl)C1(Cl)CC1 (racemic)	2.33^[a]
OC(Cc1ccccc1F)(Cn1cncc1C1CC1)C1(Cl)CC1 (racemic)	1.86^[a]
N#Cc1cncn1CC(O)(Cc1ccnnc1Cl)C1(Cl)CC1 (stereo not shown)	1.59^[a]
CCOC(Cc1ccc(Cl)cc1F)(Cn1cncc1Cl)C1(Cl)CC1 (stereo not shown)	3.10^[a]
N#Cc1cncn1CC(O)(Cc1ccnc(Cl)c1F)C1(Cl)CC1 (stereo not shown)	2.25^[a]
CC(C)(C)C(O)(Cc1ccccc1F)Cn1cncc1C#N (stereo not shown)	2.73^[a]
N#Cc1cncn1CC(O)(Cc1ccnc(Cl)c1)C1(Cl)CC1 (racemic)	2.04^[a]
OC(Cc1ccccc1Cl)(Cn1cncc1I)C1(Cl)CC1 (stereo not shown)	2.14^[a]
Cc1cccc(CC(O)(Cn2cncc2Cl)C2(Cl)CC2)c1F (stereo not shown)	2.35^[a]
N#Cc1cncn1CC(O)(Cc1ccncc1C(F)(F)F)C1(Cl)CC1 (racemic)	2.18^[a]
O=C(Cc1ccccc1F)c1cncn1CC(O)(Cc1ccccc1F)C1(Cl)CC1 (stereo not shown)	3.60^[a]
OC(Cc1cccnc1Cl)(Cn1cncc1Br)C1(Cl)CC1 (stereo not shown)	1.56^[a]
OC(Cc1ccncc1Cl)(Cn1cncc1Cl)C1(Cl)CC1 (racemic)	1.52^[a]
N#Cc1cncn1CC(O)(Cc1cc(Cl)ncc1Cl)C1(Cl)CC1 (racemic)	2.62^[a]
N#Cc1cncn1CC(O)(Cc1ccc(F)cc1)C1(Cl)CCC1 (stereo not shown)	2.98^[a]
CC(C)C(O)(Cc1ccccc1Cl)Cn1cncc1C#N (racemic)	2.67^[a]
N#Cc1cncn1CC(O)(Cc1ccc(F)c(F)c1F)C1CCC1 (stereo not shown)	2.78^[a]
OC(Cc1cc(Cl)nc(Cl)c1)(Cn1cncc1Cl)C1(Cl)CC1 (racemic)	2.23^[a]
N#Cc1cncn1CC(O)(Cc1ccc(F)cc1)C1CCC1 (stereo not shown)	2.56^[a]
CC(C)C(O)(Cc1cccc(F)c1F)Cn1cncc1C#N (stereo not shown)	2.47^[a]
N#Cc1cncn1CC(O)(Cc1ccc(F)cc1)C1CCCC1 (stereo not shown)	2.82^[a]
N#Cc1cncn1CC(O)(Cc1cc(F)ncc1Cl)C1(Cl)CC1 (stereo not shown)	2.38^[a]
N#CCc1cncn1CC(O)(Cc1ccccc1Cl)C1(Cl)CC1 (stereo not shown)	1.66^[a]
OC(Cc1ccc(F)cc1Cl)(Cn1cncc1Cl)C1(Cl)CC1 (stereo not shown)	2.47^[a]
OC(Cc1ccnc(Cl)c1)(Cn1cncc1Cl)C1(Cl)CC1 (racemic)	1.62^[a]

---

Entries and their LogP
# Assay overview: Measurement of Log P values by HPLC on reversed phase columns (EEC directive 79/831 Annex V.A8)
# Assay type: physicochemical
Marks after values point to notes of the source that are not given here.

Compound	LogP
Cc1cc(F)ccc1CC(O)(Cn1cncc1Cl)C1(Cl)CC1 (centres unmarked)	2.46^[a]
C=CCOC(Cc1ccc(Cl)cc1F)(Cn1cncc1Cl)C1(Cl)CC1 (centres unmarked)	3.31^[a]
OC(Cc1ccc(Cl)cc1F)(Cn1cncc1Br)C1(Cl)CC1 (centres unmarked)	2.55^[a]
CC(C)C(O)(Cc1ccc(F)cc1F)Cn1cncc1C#N (centres unmarked)	2.52^[a]
N#Cc1cncn1CC(O)(Cc1cccc(Cl)c1Cl)C1(Cl)CC1 (racemic)	3.25^[a]

---

# Assay overview: Measurement of Log P values by HPLC on reversed phase columns (EEC directive 79/831 Annex V.A8)
# Type: physicochemical
Marks after values point to notes of the source that are not given here.
Entries and their LogP
Property measured: LogP

Molecule	Property measured	Observed value
N#Cc1cncn1CC(O)(Cc1ccncc1Br)C1(Cl)CC1 (racemic)	LogP	1.94^[a]
N#Cc1cncn1CC(O)(Cc1ccnc(Cl)c1Cl)C1(Cl)CC1 (racemic)	LogP	2.47^[a]
COc1ccccc1CC(O)(Cn1cncc1C#N)C1(Cl)CC1 (racemic)	LogP	2.93^[a]
CC1(C(O)(Cc2ccccc2Cl)Cn2cncc2C#N)CC1 (racemic)	LogP	2.87^[a]
Cc1ccc(CC(O)(Cn2cncc2Cl)C2(Cl)CC2)c(F)c1 (stereo not shown)	LogP	2.34^[a]
CC(C)C(O)(Cc1ccc(F)cc1)Cn1cncc1C#N (stereo not shown)	LogP	2.44^[a]
OC(Cc1ccccc1C(F)(F)F)(Cn1cncc1Cl)C1(Cl)CC1 (racemic)	LogP	2.62^[a]
N#Cc1cncn1CC(O)(Cc1ccncc1F)C1(Cl)CC1 (stereo not shown)	LogP	1.62^[a]
OC(Cn1cncc1Br)(C(F)c1ccccc1Cl)C1(Cl)CC1 (stereo not shown)	LogP	2.32^[a]
N#Cc1cncn1CC(O)(Cc1cccnc1Cl)C1(Cl)CC1 (stereo not shown)	LogP	2.01^[a]
OC(Cn1cncc1Cl)(C(F)c1ccccc1F)C1(Cl)CC1 (stereo not shown)	LogP	2.01^[a]
CCOC(=O)c1cncn1CC(O)(Cc1ccccc1F)C1(Cl)CC1 (stereo not shown)	LogP	2.73^[a]
COC(Cc1ccc(Cl)cc1F)(Cn1cncc1C#N)C1CC1 (stereo not shown)	LogP	3.31^[a]
OC(Cc1cccc(Cl)c1Cl)(Cn1cncc1Cl)C1(Cl)CC1 (racemic)	LogP	2.69^[a]
OC(Cc1cc(F)ncc1Cl)(Cn1cncc1Cl)C1(Cl)CC1 (stereo not shown)	LogP	2.01^[a]
N#Cc1cncn1CC(O)(Cc1ccc(Cl)cc1)C1(Cl)CC1 (racemic)	LogP	3.10^[a]
N#Cc1cncn1CC(O)(Cc1ccc(F)cc1)C1(Cl)CC1 (stereo not shown)	LogP	2.75^[a]
N#Cc1cncn1CC(O)(Cc1ccc(Br)cc1F)C1(Cl)CC1 (racemic)	LogP	3.24^[a]
Cc1cncn1CC(O)(Cc1ccccc1Cl)C1(Cl)CC1 (stereo not shown)	LogP	1.72^[a]
